# Tested on: Escherichia coli TOP10
# Assay info: shrunken log2 fold change of peptide-encoding DNA abundance (4.5 h post-induction vs induction); higher = less antimicrobial activity (less host growth inhibition)
# Details: time post-induction: 4.5 h; library: site-saturation at positions 5, 18, 19, 20
Classes (shrunken log2 fold change): low (below -0.3), medium (-0.3 to below 0.07), high (0.07 or more)

# Record sequence, Assigned class
measured = [
    ("RRIRGRPPRLPRPRPRPYYQPRP", "low"),
    ("RRIRNRPPRLPRPRPRPMFIPRP", "low"),
    ("RRIRRRPPRLPRPRPRPSEQPRP", "high"),
    ("RRIRSRPPRLPRPRPRPETMPRP", "high"),
    ("RRIRIRPPRLPRPRPRPFLEPRP", "low"),
    ("RRIRARPPRLPRPRPRPCGIPRP", "high"),
    ("RRIRYRPPRLPRPRPRPCMHPRP", "low"),
    ("RRIRRRPPRLPRPRPRPYKCPRP", "low"),
    ("RRIRPRPPRLPRPRPRPRQAPRP", "medium"),
    ("RRIRTRPPRLPRPRPRPVMIPRP", "medium"),
    ("RRIRTRPPRLPRPRPRPHRQPRP", "medium"),
    ("RRIRARPPRLPRPRPRPRGAPRP", "high"),
    ("RRIRFRPPRLPRPRPRPHIGPRP", "low"),
    ("RRIRLRPPRLPRPRPRPEIGPRP", "high"),
    ("RRIRRRPPRLPRPRPRPWRDPRP", "medium"),
    ("RRIRDRPPRLPRPRPRPAMQPRP", "high"),
    ("RRIRPRPPRLPRPRPRPTGLPRP", "high"),
    ("RRIRCRPPRLPRPRPRPDYIPRP", "medium"),
    ("RRIRYRPPRLPRPRPRPSIYPRP", "low"),
    ("RRIRFRPPRLPRPRPRPDRDPRP", "medium"),
    ("RRIRCRPPRLPRPRPRPPMEPRP", "high"),
    ("RRIRPRPPRLPRPRPRPMWFPRP", "medium"),
    ("RRIRVRPPRLPRPRPRPTCPPRP", "high"),
    ("RRIRSRPPRLPRPRPRPHGDPRP", "medium"),
    ("RRIRQRPPRLPRPRPRPSVIPRP", "low"),
    ("RRIRARPPRLPRPRPRPDDFPRP", "medium"),
    ("RRIRNRPPRLPRPRPRPSKGPRP", "medium"),
    ("RRIRTRPPRLPRPRPRPRKYPRP", "low"),
    ("RRIRYRPPRLPRPRPRPSAAPRP", "medium"),
    ("RRIRERPPRLPRPRPRPEIPPRP", "high"),
    ("RRIRERPPRLPRPRPRPMWYPRP", "low"),
]

---

A collection of sequences and their measured shrunken log2 fold change
# Tested on: Escherichia coli TOP10
# Assay info: shrunken log2 fold change of peptide-encoding DNA abundance (4.5 h post-induction vs induction); higher = less antimicrobial activity (less host growth inhibition)
# Details: time post-induction: 4.5 h; library: site-saturation at positions 5, 18, 19, 20
Reported endpoint: shrunken log2 fold change

# Record sequence, Study system, Measured number
data = [
    ("RRIRCRPPRLPRPRPRPSWFPRP", "Escherichia coli TOP10", -0.147),
    ("RRIRCRPPRLPRPRPRPRCDPRP", "Escherichia coli TOP10", -0.047),
    ("RRIRPRPPRLPRPRPRPDNHPRP", "Escherichia coli TOP10", -0.521),
    ("RRIRTRPPRLPRPRPRPNMKPRP", "Escherichia coli TOP10", -0.526),
    ("RRIRCRPPRLPRPRPRPLKFPRP", "Escherichia coli TOP10", -0.162),
    ("RRIRNRPPRLPRPRPRPCPPPRP", "Escherichia coli TOP10", -0.328),
    ("RRIRGRPPRLPRPRPRPWWEPRP", "Escherichia coli TOP10", 0.0256),
    ("RRIRARPPRLPRPRPRPFTPPRP", "Escherichia coli TOP10", -0.0978),
    ("RRIRGRPPRLPRPRPRPVHLPRP", "Escherichia coli TOP10", 0.034),
    ("RRIRARPPRLPRPRPRPLIMPRP", "Escherichia coli TOP10", -0.144),
    ("RRIRWRPPRLPRPRPRPQVQPRP", "Escherichia coli TOP10", 0.115),
    ("RRIRHRPPRLPRPRPRPTFWPRP", "Escherichia coli TOP10", 0.179),
    ("RRIRLRPPRLPRPRPRPANNPRP", "Escherichia coli TOP10", -0.116),
    ("RRIRERPPRLPRPRPRPFQCPRP", "Escherichia coli TOP10", -0.018),
    ("RRIRQRPPRLPRPRPRPCWDPRP", "Escherichia coli TOP10", -0.155),
]

---

shrunken log2 fold change reference
# Test system: Escherichia coli TOP10
# Assay info: shrunken log2 fold change of peptide-encoding DNA abundance (4.5 h post-induction vs induction); higher = less antimicrobial activity (less host growth inhibition)
# Details: time post-induction: 4.5 h; library: site-saturation at positions 5, 18, 19, 20

# Record sequence, shrunken log2 fold change
measured = [
    ("RRIRTRPPRLPRPRPRPESLPRP", -0.00987),
    ("RRIRVRPPRLPRPRPRPAYLPRP", 0.0246),
    ("RRIRTRPPRLPRPRPRPGCAPRP", 0.515),
    ("RRIRTRPPRLPRPRPRPPKIPRP", -0.112),
    ("RRIRMRPPRLPRPRPRPSCFPRP", -0.145),
    ("RRIRFRPPRLPRPRPRPMCKPRP", -0.169),
    ("RRIRNRPPRLPRPRPRPQHNPRP", -0.625),
    ("RRIRHRPPRLPRPRPRPKATPRP", 0.00379),
    ("RRIRCRPPRLPRPRPRPVPEPRP", 0.316),
    ("RRIRMRPPRLPRPRPRPDEKPRP", -0.0255),
    ("RRIRLRPPRLPRPRPRPVEEPRP", 0.21),
    ("RRIRHRPPRLPRPRPRPCQMPRP", -0.0239),
    ("RRIRERPPRLPRPRPRPQHRPRP", 0.152),
    ("RRIRSRPPRLPRPRPRPIRRPRP", 0.011),
    ("RRIRNRPPRLPRPRPRPDIRPRP", -0.01),
]

---

# System: Escherichia coli TOP10
# Assay info: shrunken log2 fold change of peptide-encoding DNA abundance (4.5 h post-induction vs induction); higher = less antimicrobial activity (less host growth inhibition)
# Details: time post-induction: 4.5 h; library: site-saturation at positions 5, 18, 19, 20
Label rule, in plain words: shrunken log2 fold change of 0.4 and up is Criterion met, under 0.4 is Criterion not met.

# Record sequence, Assigned class
data = [
    ("RRIRPRPPRLPRPRPRPEPDPRP", "Criterion met"),
    ("RRIRWRPPRLPRPRPRPMVAPRP", "Criterion met"),
    ("RRIRWRPPRLPRPRPRPHKMPRP", "Criterion not met"),
    ("RRIRMRPPRLPRPRPRPSSPPRP", "Criterion not met"),
    ("RRIRIRPPRLPRPRPRPIFMPRP", "Criterion not met"),
    ("RRIRERPPRLPRPRPRPKCSPRP", "Criterion not met"),
    ("RRIRNRPPRLPRPRPRPTEKPRP", "Criterion not met"),
    ("RRIRGRPPRLPRPRPRPLQHPRP", "Criterion met"),
    ("RRIRTRPPRLPRPRPRPMRAPRP", "Criterion met"),
    ("RRIRKRPPRLPRPRPRPKYDPRP", "Criterion not met"),
    ("RRIRWRPPRLPRPRPRPKWNPRP", "Criterion not met"),
    ("RRIRLRPPRLPRPRPRPCYKPRP", "Criterion not met"),
    ("RRIRGRPPRLPRPRPRPVCSPRP", "Criterion met"),
    ("RRIRGRPPRLPRPRPRPNYAPRP", "Criterion not met"),
    ("RRIRVRPPRLPRPRPRPMEEPRP", "Criterion not met"),
]

---

# Tested on: Escherichia coli TOP10;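 further: peptides expressed intracellularly from a pBAD plasmid library in pooled LB shake-flask culture, induced with 0.3% L-arabinose, DNA abundance read by NGS, three biological replicates, DESeq2 with apeglm shrinkage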
# Assay info: shrunken log2 fold change of peptide-encoding DNA abundance (4.5 h post-induction vs induction); higher = less antimicrobial activity (less host growth inhibition)
# Details: time post-induction: 4.5 h; library: site-saturation at positions 5, 18, 19, 20

# Record sequence, shrunken log2 fold change
records = [
    ("RRIRGRPPRLPRPRPRPSIDPRP", 1.84),
    ("RRIRARPPRLPRPRPRPTACPRP", 0.405),
    ("RRIRYRPPRLPRPRPRPEFWPRP", -0.0503),
    ("RRIRWRPPRLPRPRPRPDTCPRP", -0.0059),
    ("RRIRVRPPRLPRPRPRPLDDPRP", 0.00726),
    ("RRIRKRPPRLPRPRPRPFPKPRP", 0.169),
    ("RRIRHRPPRLPRPRPRPSCEPRP", -0.569),
    ("RRIRCRPPRLPRPRPRPMMVPRP", -0.659),
]

Measured values drawn from the supplement of paper PMC9112550 for this set.
